- assay-method-text: Solubility of levodopa in citrate buffer at varying pH and buffer strength
- Assay type: physicochemical
- condition-details: pH 1.5, aqueous buffer, Citrate buffer 0.45M pH1.5, read-out: Conc (levodopa solubility)
endpoint-name: solubility (mg/mL)
Quick note: give the figure in mg/mL, leave out the unit.

Input: # get_value(readout='solubility', item= N[C@@H](Cc1ccc(O)c(O)c1)C(=O)O )
Output: 11.4
